Here the recorded Kidneys, accumulated activity is given for each entry.
Test system: KB tumor-bearing athymic nude mice
Protocol Summary: Biodistribution of 177Lu-RedFols in KB tumor-bearing mice
Format: in vivo, mouse
Condition Details: 24 h p.i.
Protocol: Athymic nude mice (Crl:CD1-Foxn^nu) were kept on a folate-deficient rodent diet (ssniff Spezialdiäten GmbH, Soest, Germany) for at least one week prior to inoculation with the tumor cells. Biodistribution studies were performed approx. two weeks after subcutaneous inoculation with KB tumor cells (5 × 10^6 in 100 μL PBS) (Supplementary Materials Section S12). […] Data were presented as the average ± SD of n = 3−4 mice. […]
Please reply with the bare figure in % IA/g and do not write the unit itself.

Enter Kidneys, accumulated activity (test system KB tumor-bearing athymic nude mice) for CN1c2c(nc(N)[nH]c2=O)NC[C@H]1CNc1ccc(C(=O)N[C@@H](CCC(=O)N[C@@H](CCCCNC(=O)CN2CCN(CC(=O)O)CCN(CC(=O)O)CCN(CC(=O)O)CC2)C(=O)N[C@@H](CCCCNC(=O)c2ccc(CNC(=O)CCCCc3ccc(I)cc3)cc2)C(=O)O)C(=O)O)cc1 [[^177Lu]Lu-6R-RedFol-25, metal not drawn] 48

Tell me its Kidneys, accumulated activity on KB tumor-bearing athymic nude mice: CN1c2c(nc(N)[nH]c2=O)NCC1CNc1ccc(C(=O)NC(CCC(=O)NC(CCCCNC(=O)CN2CCN(CC(=O)[O-])CCN(CC(=O)[O-])CCN(CC(=O)[O-])CC2)C(=O)NC(CCCCNC(=O)c2ccc(CNC(=O)CCCCc3ccc(I)cc3)cc2)C(=O)O)C(=O)O)cc1.[177Lu+3] (stereo not drawn) [[^177Lu]Lu-6S-RedFol-25] 121

Further cases:
State Kidneys, accumulated activity (KB tumor-bearing athymic nude mice) of CN1c2c(nc(N)[nH]c2=O)NCC1CNc1ccc(C(=O)NC(CCC(=O)NC(CCCCNC(=O)CN2CCN(CC(=O)[O-])CCN(CC(=O)[O-])CCN(CC(=O)[O-])CC2)C(=O)NC(CCCCNC(=O)c2ccc(CNC(=O)CCCc3ccc(I)cc3)cc2)C(=O)O)C(=O)O)cc1.[177Lu+3] (stereo not drawn) [[^177Lu]Lu-6S-RedFol-3] . 30

Enter measured Kidneys, accumulated activity, system KB tumor-bearing athymic nude mice, for the compound shown: CN1c2c(nc(N)[nH]c2=O)NC[C@H]1CNc1ccc(C(=O)N[C@@H](CCC(=O)N[C@@H](CCCCNC(=O)CN2CCN(CC(=O)O)CCN(CC(=O)O)CCN(CC(=O)O)CC2)C(=O)N[C@@H](CCCCNC(=O)CCCCc2ccc(I)cc2)C(=O)O)C(=O)O)cc1 [[^177Lu]Lu-6R-RedFol-24, metal not drawn] 62

Retrieve Kidneys, accumulated activity on KB tumor-bearing athymic nude mice; query CN1c2c(nc(N)[nH]c2=O)NC[C@H]1CNc1ccc(C(=O)N[C@@H](CCC(=O)N[C@@H](CCCCNC(=O)CN2CCN(CC(=O)O)CCN(CC(=O)O)CCN(CC(=O)O)CC2)C(=O)N[C@@H](CCCCNC(=O)c2ccc(CNC(=O)CCCc3ccc(I)cc3)cc2)C(=O)O)C(=O)O)cc1 [[^177Lu]Lu-6R-RedFol-3, metal not drawn] 12

---

Target Or System: human serum albumin (HSA) in human plasma (Homo sapiens, UniProt P02768)
Sequence (P02768 25-609): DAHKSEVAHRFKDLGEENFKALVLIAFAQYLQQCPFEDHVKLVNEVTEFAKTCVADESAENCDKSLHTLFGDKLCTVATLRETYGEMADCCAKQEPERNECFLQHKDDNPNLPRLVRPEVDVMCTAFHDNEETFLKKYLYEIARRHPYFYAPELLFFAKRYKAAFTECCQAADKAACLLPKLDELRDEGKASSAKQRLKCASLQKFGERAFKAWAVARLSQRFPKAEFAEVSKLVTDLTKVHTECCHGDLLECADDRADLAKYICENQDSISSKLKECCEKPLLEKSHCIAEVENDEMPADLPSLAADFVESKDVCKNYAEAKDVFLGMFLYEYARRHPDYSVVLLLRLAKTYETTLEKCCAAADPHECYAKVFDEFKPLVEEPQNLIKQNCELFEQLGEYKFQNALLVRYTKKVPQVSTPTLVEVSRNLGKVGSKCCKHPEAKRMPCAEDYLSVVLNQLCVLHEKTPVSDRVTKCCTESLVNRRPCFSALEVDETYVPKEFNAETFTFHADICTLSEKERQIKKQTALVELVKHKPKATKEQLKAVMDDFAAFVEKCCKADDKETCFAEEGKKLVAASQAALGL
Protocol Summary: Ultrafiltration albumin-binding assay of 177Lu-RedFols, human plasma
Condition Details: human blood plasma; inverse B50 ratio, normalized to the respective (6R or 6S) RedFol-1, set as 1.0
Endpoint Name: Relative albumin-binding affinity
# respond with the number and nothing more

Give the measured Relative albumin-binding affinity for CN1c2c(nc(N)[nH]c2=O)NCC1CNc1ccc(C(=O)NC(CCC(=O)NC(CCCCNC(=O)CN2CCN(CC(=O)[O-])CCN(CC(=O)[O-])CCN(CC(=O)[O-])CC2)C(=O)NC(CCCCNC(=O)c2ccc(CNC(=O)CCCc3ccc(I)cc3)cc2)C(=O)O)C(=O)O)cc1.[177Lu+3] (stereo not drawn) [[^177Lu]Lu-6S-RedFol-3] 1.1

API: the following record is the query input.
Identify the reported Relative albumin-binding affinity for the following entry. CN1c2c(nc(N)[nH]c2=O)NC[C@H]1CNc1ccc(C(=O)N[C@@H](CCC(=O)N[C@@H](CCCCNC(=O)CN2CCN(CC(=O)O)CCN(CC(=O)O)CCN(CC(=O)O)CC2)C(=O)N[C@@H](CCCCNC(=O)CCCc2ccc(I)cc2)C(=O)O)C(=O)O)cc1 [[^177Lu]Lu-6R-RedFol-1, metal not drawn] 1.0
